# target of assay: sigma receptors
# assay explanation: Sigma receptor binding assay, displacement of [³H]DTG
# assay setup: guinea pig brain membrane homogenates, radioligand [³H]DTG […], 90 minutes at room temperature; read-out: IC₅₀ binding values
Class membership depends on IC50 alone; the intervals are lower segment (below 7 nM), middle segment (7 nM to below 90 nM), upper segment (90 nM or more)

Below, 8 molecules whose answers are already recorded.
• Cc1ccccc1NC(=N)N[C@@H]1C[C@@H]2CC[C@H]1C2 (racemic) = lower segment
• Cc1ccccc1NC(=N)Nc1ccc(N)cc1C = upper segment
• NC(=Nc1ccccc1I)NC12CC3CC(CC(C3)C1)C2 = lower segment
• N=C(NC1CCCCC1)NC12CC3CC(CC(C3)C1)C2 = middle segment
• CN(C)CCCN1c2ccccc2Sc2ccc(Cl)cc21 [chlorpromazine, reference compound] = upper segment
• Cc1ccccc1NC(=N)NC1CCCCC1 [N-cyclohexyl-N'-(2-methylphenyl)-guanidine] = middle segment
• C=CCN1CC[C@@]2(C)c3cc(O)ccc3C[C@@H]1[C@@H]2C [(-)-SKF10047, reference compound] = upper segment
• CNC(=N)NC = upper segment

IN: Input Cc1ccccc1NC(=N)NC1CCCCC1 [DChG, N-(o-tolyl)-N'-(cyclohexyl)guanidine] ; output its category
OUT: middle segment

IN: Which bin, given its IC50, does CCCN1CCC[C@@H](c2cccc(O)c2)C1 [(-)-3-PPP, reference compound] occupy?
OUT: upper segment

IN: Record CCN1CCCC1CNC(=O)c1cc(S(N)(=O)=O)ccc1OC (stereo not shown) [sulpiride, reference compound] — which class?
OUT: upper segment

IN: Which IC50 band matches N=C(Nc1ccccc1I)N[C@@H]1C[C@@H]2CC[C@H]1C2 (racemic) ?
OUT: lower segment

IN: // return the class label for N=C(Nc1ccccc1I)NC1C2CC3CC(C2)CC1C3 (stereo not shown)
OUT: lower segment

IN: Category lookup for the molecule O=C1CC2(CCCC2)CC(=O)N1CCCCN1CCN(c2nsc3ccccc23)CC1 [tiospirone, reference compound]
OUT: upper segment

IN: Into which category would you place N=C1Nc2ccccc2-c2ccccc2N1 ?
OUT: upper segment

IN: Class? Entry: N=C(Nc1ccccc1I)N[C@H]1C[C@@H]2CC[C@H]1C2 (relative stereo)
OUT: lower segment
